Tested on: U2OS
Assay: Multiplex assay against U2OS
Type: toxicity, cell-based
Conditions: human, 24 h, 10 µM, compound concentration 10 uM, replicate 2
endpoint: Population Mitotic Cells (%)
I only need the number, in %, no unit after it.

Record request: Population Mitotic Cells (%) value, item C=CC(=O)Nc1cccc(C(=O)Nc2ccc(Nc3cc(-c4[nH]c(SC)nc4C)ccn3)cc2)c1
60

Please look up its Population Mitotic Cells (%): CN1CCN(c2ccc(OC(F)(F)F)c(Nc3ncc4c(n3)-c3c(c(C(N)=O)nn3CCO)CC4)c2)CC1
60

If you can, please state the reported Population Mitotic Cells (%) value of Cc1[nH]c(/C=C2\C(=O)Nc3ccc(S(=O)(=O)N(C)c4cccc(Cl)c4)cc32)c(C)c1C(=O)N1CCN(C)CC1 .
0

Continuing:
Dear colleague, I am looking for the recorded Population Mitotic Cells (%) of the following molecule: CC(C)(O)CNc1ncc(-c2ccnc(Nc3ccnc(Cl)c3)n2)c(CC2CC2)n1
52

FYI, the data here is from ChEMBL document CHEMBL4689842.
